For each entry below, report its MIC value.
Test system: Escherichia coli (E. Coli, ATCC 25922)
Assay: microbe, parasite or virus in culture
Settings: ATCC25922, 24 h, read-out: Escherichia coli (ATCC 25922) MIC, Table 31, [R5W4] (IFX-301), antibiotics alone and PHY-MIX (1:1 w/w)
Give bare numbers, in µg/mL.

| Molecule | Measurement kind | Units text | Readout value |
| --- | --- | --- | --- |
| C[C@@H](O)[C@H]1C(=O)N2C(C(=O)O)=C(S[C@@H]3CN[C@H](C(=O)N(C)C)C3)[C@H](C)[C@H]12 [Meropenem] | MIC | µg/mL | 1 |

For the 3 molecules below, give their MIC values.
1. NC[C@H]1O[C@H](O[C@H]2[C@H](O)[C@@H](O[C@H]3O[C@H](CO)[C@@H](O)[C@H](N)[C@H]3O)[C@H](N)C[C@@H]2N)[C@H](O)[C@@H](O)[C@@H]1O [Kanamycin]
2. C[C@H]1COc2c(N3CCN(C)CC3)c(F)cc3c(=O)c(C(=O)O)cn1c23 [Levofloxacin]
3. CN(C)[C@@H]1C(O)=C(C(N)=O)C(=O)[C@@]2(O)C(O)=C3C(=O)c4c(O)cccc4[C@@](C)(O)[C@H]3C[C@@H]12 [tetracycline, reference compound]

Reply:
32
64
8

Simply: NC[C@H]1O[C@H](O[C@H]2[C@H](O)[C@@H](O[C@H]3O[C@H](CO)[C@@H](O)[C@H](N)[C@H]3O)[C@H](N)C[C@@H]2N)[C@H](N)C[C@@H]1O [Tobramycin] , Escherichia coli (E. Coli, ATCC 25922), MIC = 8

Hello, the source for this data is patent US20220289794A1, in case you need it.
